Assignment: determine reported logD for the given compounds.
# MEASUREMENT_DESCRIPTION: physchem
# MEASUREMENT_SETUP: octanol/water
API doc: respond with a numeric literal and nothing else, no unit.

Entry `C[C@@H]1CCCN1CCc1ccc(-c2ccc(S(=O)(=O)N3CCS(=O)(=O)CC3)cc2)cc1` — recorded logD = 1.6

Per the record, `C[C@@H]1CCCN1CCc1ccc2nc(-c3csc(-c4ccc(OCC(F)(F)F)nc4)n3)ccc2c1` has logD of 4.8

Value of logD reported for the compound `CCCn1c(-c2ccc(OCCCN3CCCCC3)cc2)nc2ccccc2c1=O` is 3.1

Reported logD ( N#Cc1ccc(OC2CNC(C(=O)N3CCCN(C4CCC4)CC3)C2)cc1 (stereo not given) ) = -0.2

Lookup result for `Cn1c(-c2ccc(OCCCN3CCCCC3)cc2)nc2ccccc2c1=O` ; measured logD: 2.2

So for `C[C@H]1Sc2ccccc2O[C@@H]1c1ccc(OCCCN2CCCC2)cc1` , the logged logD turned out to be 3.3

logD reported for this compound CC1CCCN1CCc1ccc2nc(-c3ccsc3)ccc2c1 (stereo not given) : 3.3

Memo: `CC(C)c1nc2ccccc2c(=O)n1-c1ccc(OCCCN2CCCC2)cc1` , reported logD: 2.8

Sample `CC(C)N1CCN(C(=O)N2CCC(C(=O)N3CC4CCC(CC4)C3)CC2)CC1` ; logD observed: 0.9

# compound `Oc1ccc(-c2cc3sc(N4CCC(N5CCCCC5)CC4)nc3cn2)cn1` ; its logD = 1.4

###

For each of the molecules below, state its logD.
# MEASUREMENT_DESCRIPTION: physchem
# MEASUREMENT_SETUP: octanol/water

Just so you know, measured logD for `Cc1nc2cccc(Cl)c2c(=O)n1-c1ccc(OCCCN2CCCC2)cc1` came out at 2.4

Measured logD, COC(=O)N1CC(Oc2cccc(F)c2)CC1C(=O)N1CCCN(C2CCC2)CC1 (stereo unspecified) : 1.8

Given item `O=c1c2ccccc2nc(-c2ccc(OCCCN3CCCCC3)cc2)n1-c1ccccc1` , the value recorded as its logD is 3.8

`Cc1c(-c2ccc(Cl)cc2)noc1-c1ccc2cc(CCN3CCC[C@H]3C)ccc2n1` yielded logD of 5.5

The reported value for `Cc1cccc2c(=O)n(-c3ccc(OCCCN4CCCC4)cc3)c(C)nc12` in terms of logD is 2.2

Sure, the documented logD for COc1cccc2c1S(=O)(=O)C(C)C(c1ccc(OCCCN3CCCC3)cc1)O2 (stereo unspecified) is 2.2

Just so you know, measured logD for `COc1cccc2c(=O)n(-c3ccc(OCCCN4CCCC4)cc3)c(C)nc12` came out at 1.7

Noted for `Cc1ccc(-c2cc3sc(N4CCC(N5CCCCC5)CC4)nc3cn2)cn1` : its logD reads 1.4

// field: logD; key: `C[C@@H]1CCCN1CCc1ccc2nc(-c3ccn[nH]3)ccc2c1` ; value = 2.4

Briefly, logD measured for `COCCNS(=O)(=O)c1ccc(-c2ccc(CCN3CCC[C@H]3C)cc2)cc1` : 1.8

Query `COc1ccccc1-c1ccc(OCCCN2CCCCC2)cc1` yields logD of 2.9

Summary for this molecule, `C[C@@H]1CCCN1CCc1ccc2nc(-c3cnccn3)ccc2c1` : logD is 1.8

The recorded logD for `CC(C)N1CCN(C(=O)N2CCC(NC(=O)C3CCCC3)CC2)CC1` is 0.2

Recorded result, `Cc1ccc(-c2ccc(-c3ccc4cc(CCN5CCC[C@H]5C)ccc4n3)s2)s1` , logD: 5.5

logD reported for this molecule `Fc1cc(-c2cc3sc(N4CCC(N5CCCCC5)CC4)nc3cn2)ccn1` : 1.7

Briefly, logD measured for `Fc1ccc(-c2cnc3nc(N4CCC(N5CCCCC5)CC4)sc3c2)cn1` : 1.5

Per the record, `CCn1c(-c2ccc(OCCCN3CCCCC3)cc2)nc2ccccc2c1=O` has logD of 2.6

Lookup result for `Fc1ccc(-c2cc3sc(N4CCC(N5CCCCC5)CC4)nc3cn2)cn1` ; measured logD: 1.7

Per the records, this molecule ( `COC1CCN(S(=O)(=O)c2ccc(-c3ccc(CCN4CCC[C@H]4C)cc3)cc2)CC1` ) has logD equal to 2

The molecule `Cc1c(-c2ccc3cc(CCN4CCC[C@H]4C)ccc3n2)sc2nc3ccccc3n12` showed logD equal to 4.5

For reference, reported logD for `Nc1ccc(-c2cc3sc(N4CCC(N5CCCCC5)CC4)nc3cn2)cn1` stands at 0.9

###

# MEASUREMENT_DESCRIPTION: physchem
# MEASUREMENT_SETUP: octanol/water
Please respond with criterion met when measured logD is strictly beneath 2, and with criterion not met in all other cases.

q: Hi there! Is logD for `COc1cc(-c2cnc3nc(N4CCC(N5CCCCC5)CC4)sc3c2)ccn1` below 2, do you know?
a: criterion met

q: is_below(logD, 2) for `Cc1ccc(-c2cnc3nc(N4CCC(N5CCCCC5)CC4)sc3c2)cn1` ?
a: criterion met

q: I'd appreciate it if you could check whether `O=C(NCc1ccc(C(F)(F)F)cc1)N1CCC[C@H]1CN1CCCC1` has logD smaller than 2.
a: criterion met

q: Take the compound `O=C(N1Cc2ccccc2C1)N1CCC[C@H]1CN1CCCC1` and say whether its logD is less than 2.
a: criterion met

q: Consider `CCCc1nc2ccccc2c(=O)n1-c1ccc(OCCCN2CCCC2)cc1` . Does its logD lie strictly below 2?
a: criterion not met

q: Dear colleague, could you confirm whether logD of `Cc1c(-c2ccc3cc(CCN4CCC[C@H]4C)ccc3n2)cnn1-c1ccc(Cl)c(Cl)c1` falls below 2? Thanks.
a: criterion not met

q: I'd appreciate it if you could check whether O=C(C1CC(Oc2ccc(F)cc2)CN1)N1CCCN(C2CCC2)CC1 (configuration not stated) has logD smaller than 2.
a: criterion met

q: Consider the compound `Cc1nc(C)c(-c2ccc3cc(CCN4CCC[C@H]4C)ccc3n2)o1` . Is its logD strictly less than 2?
a: criterion not met

q: Is the reported logD for `COc1ccc(-c2cnc3nc(N4CCC(N5CCCCC5)CC4)sc3c2)cn1` strictly below 2?
a: criterion met

q: Hi there! Is logD for `Nc1cnc(-c2cnc3nc(N4CCC(N5CCCCC5)CC4)sc3c2)cn1` below 2, do you know?
a: criterion met

q: Lab note: logD threshold 2. Does this compound come in strictly under it? `CC[C@@H]1Sc2ccccc2O[C@@H]1c1ccc(OCCCN2CCCC2)cc1`
a: criterion not met

q: Quick check: logD of `Cc1nc(N2CCCC2)ncc1-c1ccc2cc(CCN3CCC[C@H]3C)ccc2n1` under 2?
a: criterion not met

q: Is 2 strictly greater than the compound's reported logD? compound: `Cc1cc2ncc(-c3ccc4cc(CCN5CCC[C@H]5C)ccc4n3)c(C)n2n1`
a: criterion not met

q: Answer whether the compound `C[C@@H]1CCCN1CCc1ccc(-c2ccc(S(=O)(=O)NCc3ccncc3)cc2)cc1` has logD strictly less than 2
a: criterion not met

q: API: query returns whether the compound falls strictly under 2 in logD. Query: COc1cccc2c1OC(c1ccc(OC3CCN(C4CCC4)CC3)cc1)C(C)S2(=O)=O (configuration not stated)
a: criterion not met

q: Strictly below 2 in logD? `C[C@@H]1CCCN1CCc1ccc2nc(-c3ccc(N4CCCCC4)cc3)ccc2c1`
a: criterion not met

q: Say whether its logD is strictly beneath 2. Entry: O=C(C1CC(Oc2ccc(Cl)cc2)CN1)N1CCCN(C2CCC2)CC1 (configuration not stated)
a: criterion met

q: For this compound, is logD lower than 2? `C[C@@H]1CCCN1CCc1ccc2nc(C(C)(C)C)ccc2c1`
a: criterion not met

q: Lab note: logD threshold 2. Does this compound come in strictly under it? O=C(C1CC(Oc2cccc(Cl)c2)CN1)N1CCCN(C2CCC2)CC1 (configuration not stated)
a: criterion met

q: Input `Cc1onc(-c2ccc(Cl)cc2)c1-c1ccc2cc(CCN3CCC[C@H]3C)ccc2n1` ; condition: logD strictly below 2. Does it hold?
a: criterion not met

q: Please state whether logD is below 2 for `C[C@@H]1CCCN1CCc1ccc2nc(-c3c(-c4ccccc4)nn(C)c3Cl)ccc2c1`
a: criterion not met

q: Given `N#Cc1cncc(-c2cc3sc(N4CCC(N5CCCCC5)CC4)nc3cn2)c1` , is recorded logD strictly lower than 2?
a: criterion met

q: Hello, is logD of the following compound strictly smaller than 2? `Cc1cc(-c2nc(-c3ccc4cc(CCN5CCC[C@H]5C)ccc4n3)cs2)no1`
a: criterion not met

q: Record `Cc1c(-c2ccc3cc(CCN4CCC[C@H]4C)ccc3n2)cnn1-c1ccc(N(C)C)nn1` : is its logD strictly below 2?
a: criterion not met

q: Answer whether the compound `O=c1c2ccccc2nc(-c2ccccc2)n1-c1ccc(OCCCN2CCCC2)cc1` has logD strictly less than 2
a: criterion not met

q: Please let me know if `Cc1nc2cc(C(F)(F)F)ccc2c(=O)n1-c1ccc(OCCCN2CCCC2)cc1` shows logD below 2.
a: criterion not met

q: Just wondering, is logD of Cc1nc(C)c(-c2ccc3cc(CCN4CCCC4C)ccc3n2)cc1C#N (configuration not stated) below 2?
a: criterion not met

q: Report whether reported logD is lower than 2 (strictly) for `COc1ccc2c(=O)n(-c3ccc(OCCCN4CCCC4)cc3)c(C)nc2c1`
a: criterion met

q: Hi there! Is logD for `C[C@@H]1CCCN1CCc1cc2cc(-c3ccc(C#N)cc3)ccc2o1` below 2, do you know?
a: criterion not met

q: For this compound, is logD lower than 2? `COc1ccc2c(=O)n(C)c(-c3ccc(OC4CCN(C5CCC5)CC4)cc3)nc2c1`
a: criterion not met

q: Consider the compound O=C(C1CC(Oc2ccc(F)cc2)CN1)N1CCCN(C2CCCC2)CC1 (configuration not stated) . Is its logD strictly less than 2?
a: criterion met

q: Strictly below 2: is that where logD of `c1ccc([C@@H]2Sc3ccccc3O[C@@H]2c2ccc(OCCCN3CCCC3)cc2)cc1` sits?
a: criterion not met

q: Is logD strictly under 2 for the entry `O=C(N1CCN(C2CCCC2)CC1)N1Cc2ccccc2C1` ?
a: criterion met

q: In the record for `Fc1cc(-c2cnc3nc(N4CCC(N5CCCCC5)CC4)sc3c2)ccn1` , is logD less than 2?
a: criterion met

q: Record `C[C@@H]1CCCN1CCc1ccc(-c2ccc(S(=O)(=O)NC3CCC3)cc2)cc1` : is its logD strictly below 2?
a: criterion not met

q: Consider `Cc1nc2ccccn2c1-c1ccc2cc(CCN3CCC[C@H]3C)ccc2n1` . Does its logD lie strictly below 2?
a: criterion not met

q: Does CN(C)C1CCC(c2ccc(OCCCN3CCCCC3)cc2)CC1 (configuration not stated) have logD strictly under 2?
a: criterion met

q: Dear colleague, could you confirm whether logD of `C[C@@H]1CCCN1CCc1ccc2nc(-c3csc(-c4cc(Cl)nc(Cl)c4)n3)ccc2c1` falls below 2? Thanks.
a: criterion not met

q: Is it true that logD reported for `Cc1c(-c2ccc3cc(CCN4CCC[C@H]4C)ccc3n2)sc2ncnn12` is less than 2?
a: criterion not met

q: # strict comparison: is reported logD < 2? input = `CC(C)N1CCN(C(=O)N2CCC(c3ccccc3)CC2)CC1`
a: criterion met

q: Threshold test, logD < 2: `CC(=O)Nc1ccc(-c2cnc3nc(N4CCC(N5CCCCC5)CC4)sc3c2)cn1`
a: criterion met

Data provenance: ChEMBL document CHEMBL1821550
